- assay-protocol: Iron sequestering activity of the compound assessed as [Fe(H2O)6]3+ formation at 10^-5 M at pH 7.4 by spectrophotometrically in presence of 10^-6 M total iron concentration
# cutoff 30 applies to pM; >= gives Condition met, < gives Condition not met

Solved cases below.
> print(dat)
                              line.notation  assigned.category
1        CN(C)C(=O)c1cc(S(=O)(=O)O)cc(O)c1O  Condition not met
2  CC(=O)N(O)CCCCCNC(=O)CCC(=O)N(O)CCCCCNC(=O)CCC(=O)N(O)CCCCCN  Condition not met

Ask: State whether the measured pM reaches 30, counting equality as reaching it, for `O=C(NCCCCN(CCCNC(=O)c1cc(S(=O)(=O)O)cc(O)c1O)C(=O)c1cc(S(=O)(=O)O)cc(O)c1O)c1cc(S(=O)(=O)O)cc(O)c1O`
Result: Condition not met

Ask: Is pM for `O=C(N[C@H]1COC(=O)[C@@H](NC(=O)c2cccc(O)c2O)COC(=O)[C@@H](NC(=O)c2cccc(O)c2O)COC1=O)c1cccc(O)c1O` at or above 30?
Result: Condition met

Ask: Say whether `O=C(NCc1cc(S(=O)(=O)O)cc(O)c1O)c1cc(C(=O)NCc2cc(S(=O)(=O)O)cc(O)c2O)cc(C(=O)NCc2cc(S(=O)(=O)O)cc(O)c2O)c1` shows pM of 30 or more.
Result: Condition not met
